# tested system: T1, human MSLN-R2-his protein (human, UniProt Q13421 391-486)
# T1 construct: Region 2 of human mesothelin, made in HEK293E cells, His-tagged; also called human MSLN-R2 protein; hMSLN-R2-his; not shown: His tag
# T1 sequence (Q13421 other isoform, or with tags, fused parts or gaps): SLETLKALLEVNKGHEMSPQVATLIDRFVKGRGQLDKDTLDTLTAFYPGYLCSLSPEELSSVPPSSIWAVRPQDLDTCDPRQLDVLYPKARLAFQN
# method: ELISA on coated MSLN-R2; antibody 0.01 nM
quantity name: OD450 (OD450)
Give the quantity in OD450, number only.

Recorded result, S009-F8-32.3 (antibody, human IgG1, kappa, V domains shown) VH: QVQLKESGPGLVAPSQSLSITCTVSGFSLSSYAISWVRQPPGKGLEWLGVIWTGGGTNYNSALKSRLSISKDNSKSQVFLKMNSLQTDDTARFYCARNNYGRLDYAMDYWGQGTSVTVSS VL: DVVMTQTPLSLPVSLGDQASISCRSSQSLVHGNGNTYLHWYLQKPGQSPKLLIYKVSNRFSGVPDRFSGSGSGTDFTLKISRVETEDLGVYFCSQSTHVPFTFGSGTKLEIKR , OD450: 0.04

Recorded result, S009-F8-8.22 (antibody, human IgG1, kappa, V domains shown) VH: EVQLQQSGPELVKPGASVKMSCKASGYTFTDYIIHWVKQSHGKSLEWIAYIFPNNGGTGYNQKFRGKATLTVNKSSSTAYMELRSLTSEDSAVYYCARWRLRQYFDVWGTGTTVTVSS VL: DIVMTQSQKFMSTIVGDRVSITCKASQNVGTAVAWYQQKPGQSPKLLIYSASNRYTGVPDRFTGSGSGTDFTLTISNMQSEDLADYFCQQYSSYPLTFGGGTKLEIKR , OD450: 0.04

Recorded result, Tab106 (YP218, hIgG1) (antibody, V domains shown, also called YP218 human IgG1 antibody) VH: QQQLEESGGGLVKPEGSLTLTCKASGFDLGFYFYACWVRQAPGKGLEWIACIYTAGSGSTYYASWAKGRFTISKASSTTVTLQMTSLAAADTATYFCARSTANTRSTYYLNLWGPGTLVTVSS VL: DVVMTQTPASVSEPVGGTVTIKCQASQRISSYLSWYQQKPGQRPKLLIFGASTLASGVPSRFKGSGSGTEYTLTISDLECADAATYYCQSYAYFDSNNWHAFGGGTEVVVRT , OD450: 0.04

Each recorded value in this set is attributed to patent US20250250357A1.
